System: Escherichia coli
procedureSummary: Inhibition of LuxR-dependent quorum sensing activity in Escherichia coli harboring reporter plasmid LuxI-GFP assessed as reduction in 3-oxo-C6-HSL-induced GFP expression up to 100 ug/ml measured every 15 mins for 14 hrs by fluorescence assay
Active and inactive are the calls of the source. The calls are words filed in the database; no cut-off is given here.

chemicalSmiles: Cc1cc(-c2ccc(C(=O)O)nc2)c2ccccc2n1
inhibition: inactive
//
chemicalSmiles: COC(=O)c1ccc(Br)cn1
inhibition: inactive

---

Tested on: Pseudomonas aeruginosa
procedureSummary: Inhibition of LasR-dependent quorum sensing activity in Pseudomonas aeruginosa harboring reporter plasmid lasB-GFP assessed as reduction in GFP expression up to 100 ug/ml measured every 15 mins for 14 hrs by fluorescence assay
Calls of active or inactive are those of the source. No cut-off for these calls is given here.
observationType: inhibition

Consider the reported inhibition for these molecules:
chemicalSmiles: O=C(COc1ccc(C(=O)O)nc1)Nc1ccccc1
inhibition: inactive
//
chemicalSmiles: COC(=O)c1ccc(Br)cn1
inhibition: inactive
//
chemicalSmiles: CCOC(=O)c1ccc(CSCC)cn1
inhibition: inactive
//
chemicalSmiles: CCOC(=O)c1ccc(-c2ccc(C)cc2)cn1
inhibition: inactive
//
chemicalSmiles: COC(=O)c1ccc(-c2ccnc3cc(OC)ccc23)cn1
inhibition: inactive
//
chemicalSmiles: O=C(O)c1ccc(-c2cccc3ccccc23)cn1
inhibition: inactive
//
chemicalSmiles: O=C(O)c1ccc(OCC2CC2)cn1
inhibition: inactive
//
chemicalSmiles: COc1ccc2nccc(-c3ccc(C(=O)O)nc3)c2c1
inhibition: inactive

Next, consider the following molecule.
input: Any idea what its inhibition is? The molecule is `COC(=O)c1ccc(Cc2ccccc2)cn1`
output: inactive
